Hello, the source for this data is patent US7537765B2, in case you need it.

System: HIV-1 isolates selected for resistance to DSB
runDescription: Virus replication assay in H9 cells (p24 ELISA), DSB-resistant and parental viruses
Assay type: cell-based
testConditions: NL4-3 with engineered A364V mutation (DSB-resistant virus)
endpointName: pIC50
Would you please state pIC50, meaning minus log10 of the concentration in mol/L, as a bare number?

Q: For the record C=C(C)[C@@H]1CC[C@]2(C(=O)O)CC[C@]3(C)[C@H](CC[C@@H]4[C@@]5(C)CC[C@H](OC(=O)CC(C)(C)C(=O)O)C(C)(C)[C@@H]5CC[C@]43C)[C@@H]12 , what value of pIC50 is listed for HIV-1 isolates selected for resistance to DSB?
Ans: 7.00

----------
Test system: HIV-1 isolates selected for resistance to DSB
runDescription: Virus replication assay in H9 cells (p24 ELISA), DSB-resistant and parental viruses
Assay type: cell-based
testConditions: virus cultured in parallel in the absence of drug
endpointName: pIC50
Friendly reminder that pIC50 comes from taking -log10 of the concentration in mol/L.

Q: I am curious: what pIC50 value has been reported for C=C(C)[C@@H]1CC[C@]2(C(=O)O)CC[C@]3(C)[C@H](CC[C@@H]4[C@@]5(C)CC[C@H](OC(=O)CC(C)(C)C(=O)O)C(C)(C)[C@@H]5CC[C@]43C)[C@@H]12 ?
Ans: 7.70
